Entry source: ChEMBL document CHEMBL1275285

tested on: Bacillus subtilis; assay: Antimicrobial activity against Bacillus subtilis IFO 3007 at 200 ug/8 mm disk after 24 hrs by agar disk diffusion method; format: functional
Listed molecules paired with reported GI
Write the value in mm as a bare number.

Would you please look over these solved cases?
| MOLECULE | GI (mm) |
| --- | --- |
| S=c1sc(C23CC4CC(CC(C4)C2)C3)nn1CN1CCN(c2ccccc2)CC1 | 14 |
| CN1CCN(Cn2nc(C34CC5CC(CC(C5)C3)C4)sc2=S)CC1 | 14 |
| S=C(Nc1ccc(Cl)cc1)Nc1nnc(C23CC4CC(CC(C4)C2)C3)s1 | 20 |
| S=C(Nc1ccccc1)Nc1nnc(C23CC4CC(CC(C4)C2)C3)s1 | 14 |
| CC(C(=O)O)n1nc(C23CC4CC(CC(C4)C2)C3)sc1=S (racemic) | 20 |
| O=C(O)Cn1nc(C23CC4CC(CC(C4)C2)C3)sc1=S | 22 |
| S=c1[nH]nc(C23CC4CC(CC(C4)C2)C3)s1 | 13 |
| Fc1ccc(NC(=S)Nc2nnc(C34CC5CC(CC(C5)C3)C4)s2)cc1 | 19 |
| O=C(O)CCn1nc(C23CC4CC(CC(C4)C2)C3)sc1=S | 13 |

Using the record for CCN1CCN(Cn2nc(C34CC5CC(CC(C5)C3)C4)sc2=S)CC1 , report its GI.
13
